Reported folding stability dG by item:
B1: HEEH_KT_rd6_3632 (parent)
chain: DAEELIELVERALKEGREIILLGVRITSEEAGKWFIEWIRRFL

Variants of: B1
Test: folding stability dG (cDNA display proteolysis); higher = more stable
Conditions: PBS, room temperature

# polymer-sequence, folding stability dG / kcal/mol
measured = [
    ("DAEELIELVERALKEGREIILLGVRITGEEAGKWFIEWIRRFL [S28G]", 3.83),
    ("DAEELIELVERALKEGREIILLGVRITSESAGKWFIEWIRRFL [E30S]", 3.69),
    ("DAEELIELVERALKEGREIILLGVRHTSEEAGKWFIEWIRRFL [I26H]", 3.09),
    ("DAEELIELVERALKEGREIILLGVRITSEEAGKWFIEWIRLFL [R41L]", 3.81),
    ("DAEELIEMVERALKEGREIILLGVRITSEEAGKWFIEWIRRFL [L8M]", 3.69),
    ("DAEELIEHVERALKEGREIILLGVRITSEEAGKWFIEWIRRFL [L8H]", 3.26),
    ("DAEELIELVERALKEGREIINLGVRITSEEAGKWFIEWIRRFL [L21N]", 3.01),
    ("DAEELIELVERALKEGREIILLGVRITSEEAGKWFIEWIRRFK [L43K]", 3.09),
    ("DAEELIELVERALKEGREIILLGVRILSEEAGKWFIEWIRRFL [T27L]", 3.98),
    ("DAEELIELVERALKEGREIILLGVRITSEEAGKWFIAWIRRFL [E37A]", 3.81),
    ("DAEELIELVERALKRGREIILLGVRITSEEAGKWFIEWIRRFL [E15R]", 3.38),
    ("DAEELIELVERALKEGREFILLGVRITSEEAGKWFIEWIRRFL [I19F]", 3.43),
    ("DAEELIVLVERALKEGREIILLGVRITSEEAGKWFIEWIRRFL [E7V]", 3.74),
    ("DAEELIELVERALKEGREIILLGVRITSEEAGKEFIEWIRRFL [W34E]", 3.41),
    ("DAEELIELVERALKEGREIILLGVHITSEEAGKWFIEWIRRFL [R25H]", 3.72),
    ("DAEELIELVERALKEGREIILLGVRITSIEAGKWFIEWIRRFL [E29I]", 3.94),
    ("DAEELIELVERALKEGREIILLGVRITSEEAGKWFIEWRRRFL [I39R]", 2.71),
    ("DAEELIELVERALKEGREIILLGDRITSEEAGKWFIEWIRRFL [V24D]", 2.71),
    ("DAEELIELVERALKEGREIILLGVRYTSEEAGKWFIEWIRRFL [I26Y]", 3.34),
    ("DAWELIELVERALKEGREIILLGVRITSEEAGKWFIEWIRRFL [E3W]", 4.15),
    ("DAEELIELVERALKEGREIILLGVRITSEEAGEWFIEWIRRFL [K33E]", 3.43),
    ("DAEELIELVERALKEGREIILLGVNITSEEAGKWFIEWIRRFL [R25N]", 3.44),
    ("DAEELIELVVRALKEGREIILLGVRITSEEAGKWFIEWIRRFL [E10V]", 3.99),
    ("DAEELIELVERANKEGREIILLGVRITSEEAGKWFIEWIRRFL [L13N]", 2.88),
    ("DARELIELVERALKEGREIILLGVRITSEEAGKWFIEWIRRFL [E3R]", 4.16),
    ("DAEELIELVERHLKEGREIILLGVRITSEEAGKWFIEWIRRFL [A12H]", 3.35),
    ("DAEELIELVERALKEGREIILLGVRATSEEAGKWFIEWIRRFL [I26A]", 3.34),
    ("DAEEDIELVERALKEGREIILLGVRITSEEAGKWFIEWIRRFL [L5D]", 3.02),
    ("DAEELIELVERALKEGREIILLGQRITSEEAGKWFIEWIRRFL [V24Q]", 3.13),
    ("DAEELIELVERALKEGREIILLGARITSEEAGKWFIEWIRRFL [V24A]", 3.15),
    ("DAEELIELVERALKEGREIILLGVRITSEEAGKWFIEWNRRFL [I39N]", 2.64),
    ("DAEEWIELVERALKEGREIILLGVRITSEEAGKWFIEWIRRFL [L5W]", 3.67),
]
